B1: LOXL2 (parent)
chain: YVEVKEGKTWKQICDKHWTAKNSR

variants of: B1; test: protein stability index of a GFP-peptide fusion (GPS, HEK-293T) (PSI 1-6); higher = more stable; conditions: c terminus: a fixed tail appended;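 note: lentivirally expressed fusions sorted by FACS into six bins by GFP to DsRed ratio, PSI derived from sequencing read proportions per bin multiplied by bin number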
Would you mind classing the entries by protein stability index? Ranges: c1: < 2; c2: ≥ 2 and < 3; c3: ≥ 3

* Q12M | c2
* H17F | c3
* Y1K | c3
* E3S | c3
* E3M | c1
* T9R | c2
* Q12R | c3
* Y1F | c3
* C14R | c2
* Q12C | c1
* T19S | c1
* K5A | c3
* A20Q | c2
* R24Y | c3
* W18Y | c1
